- tested-system: Cytochrome P450 2C9 (Homo sapiens)
- protocol-description: qHTS Assay for Inhibitors and Substrates of Cytochrome P450 2C9 (AID 883); also: nearly all actives have a fitted effect of over 60% in size
- condition: recombinant CYP2C9, luciferin-H luminescence, 60 min; series mostly up to 11.4 µM
Results filed as inconclusive are left out. Calls of active or inactive are those of the source. Calls follow the shape of the dose curve; as a rule, active = well fitted inhibition curve with a large enough effect; inconclusive = small, poorly fitted or top-dose-only effect; inactive = no such curve, though single readings can be large or run the other way.
Please state which outcome applies, choosing from true (active), false (inactive)

>>> print(df.to_string())
                                   molecule                       tested_system  class_assignment
0  C#CCC(C(=O)OC)(C(=O)OC)C(C[N+](=O)[O-])c1ccccc1 (configuration not stated)  Cytochrome P450 2C9 (Homo sapiens)             false

How did this test come out for C=C(C)C(=O)OCC1CN2C(CCC(C)C2c2ccc(Br)cc2)C(=O)O1 (configuration not stated) ?
false

So what was the verdict on COc1cccc([C@@H]2Oc3ccc(OC)cc3/C(=N/OC[C@@H](C)[C@H](OCc3ccccc3)C(C)C)[C@@H]2O)c1 in this test?
true

I would be grateful if you could indicate the recorded call for C/C=C/C1Oc2ccc(OC)cc2N2C(=O)C(C)C(OCOC)C12 (configuration not stated) .
false

Given Cc1cc2c(nc1C)CCCN2C[C@H](O)CN1CCCc2nc(-c3ccc(Br)cc3)ccc21 , state the outcome it received in this test.
true

Which result was noted for this molecule in the test: C=CCC1(c2ccccc2)Oc2ccc(C)cc2-c2nc3cc(Cl)c(Cl)cc3nc21 (configuration not stated)
false

---

Listing of entries alongside the reported activation.
- protocol-description: qHTS assay for environmental chemicals that activate the Aryl hydrocarbon Receptor (AhR) signaling pathway (AID 651777); also: % of control where 0% means no effect; nearly all actives have a fitted effect of over 15% in size
- condition: 1A2-DRE human hepatoma cells, luciferase, 24 h; stronger effect = higher value
Inconclusive results are not listed.
Reply with just the number (in %).

>>> df
                  compound  unit_name  value
0    CCCCCCCCCCCCCc1ccccc1          %   2.83
1  O=C(Cl)c1cc(Cl)cc(Cl)c1          %   2.73

Report measured activation; entry is CCCCCCCCCCCCCCCCCC#N
2.76

Assign activation to the following record: CCc1cccc(C)c1N(C(=O)CS(=O)(=O)O)[C@@H](C)COC
-0.669

Please report activation for the following compound: Cn1c(=O)[nH]c(=O)n(C2CCC(O)CC2)c1=O (stereo not drawn)
1.88

Return reported activation. Input compound: CCC(=O)OCCc1ccccc1
2.12

Item CCOC(=O)C(C)Oc1ccc(Oc2cnc3cc(Cl)ccc3n2)cc1 (stereo not drawn) : provide activation
1.27

Assign activation to the following record: CCCC/C=C\CCCCCCCCO
0.183

Answer with the recorded activation for the compound listed here: CC(=O)CC(=O)Nc1ccccc1C
3.12

Provide activation value for the following compound: C=CCOc1nc(OCC=C)nc(OCC=C)n1
5.16

Give the measured activation for CCCCOCCOCCOC(=O)CCCCC(=O)OCCOCCOCCCC
-0.636

Provide only the value of recorded activation for CCCCCCCC/C=C\CCCCCCCC(=O)OC
-0.866

Let me know recorded activation for CCN(Cc1c(F)cccc1Cl)c1c([N+](=O)[O-])cc(C(F)(F)F)cc1[N+](=O)[O-] , thanks.
0.127

Specify reported activation for the compound shown: Oc1ccc(C(c2ccc(O)cc2)C(Cl)(Cl)Cl)cc1
10

Please report activation for the following compound: CN(C)c1ccc(C(c2ccccc2)c2ccc(N(C)C)cc2)cc1
1.41

Give the reported activation for this compound. C#CCOC(=O)[C@@H](C)Oc1ccc(Oc2ncc(Cl)cc2F)cc1
-1.36

Please supply the value of reported activation for the item C=C(C)C(=O)OCCOC(=O)C(=C)C
-1.11

Given CCCCCCCCCC(=O)OC , respond with its activation.
0.259

Entry source: PubChem BioAssay (NCATS)
